Catalogue of compounds with associated Proliferation percentage in relation to basel (100%) in the presence of LDT's, 5HT1A
SYSTEM: 5-HT1A receptors (Homo sapiens, UniProt P08908)
Construct: endogenous in cells; host or cells: DU-145
Sequence (P08908 whole entry): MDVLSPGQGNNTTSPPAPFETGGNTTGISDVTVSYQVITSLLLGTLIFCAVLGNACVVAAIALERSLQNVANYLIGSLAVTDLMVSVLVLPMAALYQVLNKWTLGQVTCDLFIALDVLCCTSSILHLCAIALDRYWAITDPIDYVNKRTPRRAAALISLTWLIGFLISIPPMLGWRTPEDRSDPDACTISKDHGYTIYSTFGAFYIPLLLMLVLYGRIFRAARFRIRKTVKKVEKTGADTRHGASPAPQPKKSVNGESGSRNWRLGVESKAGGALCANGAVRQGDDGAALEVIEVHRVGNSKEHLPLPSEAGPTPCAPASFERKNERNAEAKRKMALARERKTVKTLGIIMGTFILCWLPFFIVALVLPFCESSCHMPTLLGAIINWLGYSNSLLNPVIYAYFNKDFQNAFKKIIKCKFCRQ
ASSAY_INFO: Cell proliferation in vitro, DU-145 cells stimulated with 5-HT (MTT)
Type: cell-based
RUN_CONDITIONS: DU-145, 5-HT 1 μM + test substance 50 nM, 48 h
Marks after values point to notes of the source that are not given here.

Known results for compounds:
{"COMPOUND": "CCCCCCN1CCN(c2ccccc2OC)CC1 [LDT 66]", "EXPERIMENTAL_RESULT": "110.8 ± 7.7^b %"}
{"COMPOUND": "COc1ccccc1N1CCN(CCN(C(=O)c2ccc(F)cc2)c2ccccn2)CC1 [p-MPPF, reference compound]", "EXPERIMENTAL_RESULT": "88.9 ± 11.5^b %"}
{"COMPOUND": "COc1ccc(CCN2CCN(c3ccccc3OC)CC2)cc1OC [LDT 5]", "EXPERIMENTAL_RESULT": "118.8 ± 9.9%"}

Now for another entry.
Given COc1cccc(CCN2CCN(c3ccccc3OC)CC2)c1 [LDT 3] , state its recorded Proliferation percentage in relation to basel (100%) in the presence of LDT's, 5HT1A.
96.9 ± 5.8^b %
